Tested on: HCT-116 colon
assayComment: NCI tumour cell line growth inhibition, 48 h; in the data active = GI50 below about 0.43 µM; inactive = the rest
In this exercise, the only acceptable responses are y (active), n (inactive)

Solved entries (count: 4):
{"compound": "COc1ccc2[nH]cc(Cc3c[nH]c4ccc(OC)cc34)c2c1", "targetSystem": "HCT-116 colon", "groupLabel": "n"}
{"compound": "COC(=O)c1cc2c([nH]c3ccccc32)c(-c2nc3ccccc3cc2CO)n1", "targetSystem": "HCT-116 colon", "groupLabel": "n"}
{"compound": "CN(C)c1ccc(/C=N/n2c(CCCCc3n[nH]c(=S)n3/N=C/c3ccc(N(C)C)cc3)n[nH]c2=S)cc1", "targetSystem": "HCT-116 colon", "groupLabel": "n"}
{"compound": "NS(=O)(=O)c1ccc(-n2nc(-c3ccccc3)cc2-c2cc(O)ccc2O)cc1", "targetSystem": "HCT-116 colon", "groupLabel": "n"}

What call does the record list for `COc1ccc2[nH]cc(C3(c4c[nH]c5ccc(OC)cc45)C(=O)Nc4ccc(Cl)cc43)c2c1` ?
n

What classification did `COc1cc(C(=O)c2cnc(-c3ccc4cc[nH]c4c3)[nH]2)cc(OC)c1OC` end up with in this test?
y

Check the results log: what was the call for `Cc1c(C(=O)/C=C/c2ccc(Cl)cc2)nnn1-c1ccnc2c(C(F)(F)F)cccc12` ?
n

What was the test verdict on CCOC1Oc2ccccc2C(=O)/C1=C\Nc1ccc(C(=O)O)c(O)c1 (stereo not given) ?
n

# outcome recorded in this test, key = `Oc1ccccc1/C=N\Nc1ccccc1`
n

What call does the record list for `CCCCCCCCCCCCSC1=CC(=O)C=CC1=O` ?
n

* * *

Tested on: A549 NSCLC
assayComment: NCI tumour cell line growth inhibition, 48 h; in the data active = GI50 below about 0.43 µM; inactive = the rest
Answer with one of the outcomes class 1 (active), class 0 (inactive)

Look over these answered cases.
{"molecule": "COc1cc(Cn2c3ccccc3c3cc(C)cc(OC)c32)cc2c1[nH]c1ccccc12", "targetSystem": "A549 NSCLC", "groupLabel": "class 0"}
{"molecule": "CN1CCN(C(=O)[C@@]2(C)CC[C@]3(C)CC[C@]4(C)C(=CC[C@@H]5[C@@]6(C)CC[C@H](OC(=O)c7cccnc7)C(C)(C)[C@@H]6CC[C@]54C)[C@@H]3C2)CC1", "targetSystem": "A549 NSCLC", "groupLabel": "class 0"}
{"molecule": "COc1ccccc1-c1ccc2c(N)c(C(=O)c3ccc4c(c3)OCO4)sc2n1", "targetSystem": "A549 NSCLC", "groupLabel": "class 0"}

Now let's try a different one.
Status in this test for `Cc1cc(C(=O)CC(Cl)=C(Cl)Cl)c(Cl)cc1Cl` ?
class 0

* * *

System: SK-MEL-28 melanoma
assayComment: NCI tumour cell line growth inhibition, 48 h
observable: GI50

Example cases with answers are listed next.
{"compound": "Cn1c2ccccc2c2c(=O)n(CCCC(=O)NCCc3cnc[nH]3)c3c(-c4ccccc4)nnn3c21", "targetSystem": "SK-MEL-28 melanoma", "GI50": "8.86 µM"}
{"compound": "N#Cc1ccc(O)c(C2=NCC(c3ccc(-c4ccccc4)cc3)O2)c1 (centres undefined)", "targetSystem": "SK-MEL-28 melanoma", "GI50": "1.34 µM"}
{"compound": "COc1cc(C(=O)c2cnc(-c3ccc4cc[nH]c4c3)[nH]2)cc(OC)c1OC", "targetSystem": "SK-MEL-28 melanoma", "GI50": "0.454 µM"}

Look up and state reported GI50 for `COc1ccc2[nH]cc(Cc3c[nH]c4ccc(OC)cc34)c2c1`
21.8 µM

Provide GI50 value for the following compound: `CCCCCCCCCCCCSC1=CC(=O)C=CC1=O`
13.6 µM

* * *

Test system: NCI-H23 lung
assayComment: NCI tumour cell line growth inhibition, 48 h
The entries below are paired with their reported TGI.
Kindly provide the numeric value in µM only, without the unit symbol.

{"smilesText": "CCCc1cn2c(/C=N/N=C(N)N)c(-c3ccc([N+](=O)[O-])cc3)nc2s1", "scaleUnit": "µM", "TGI": 2.82}

Alright, here's another molecule for you.
Give TGI for `COc1cc2c(c(OC)c1)C(=O)C(=O)C(CC1(C)OCCCO1)=C2` tested on NCI-H23 lung.
24.3

* * *

Tested on: OVCAR-4 ovarian
assayComment: NCI tumour cell line growth inhibition, 48 h; in the data active = GI50 below about 0.43 µM; inactive = the rest
Hi! Could you answer with just one of these? active, inactive

Example entries begin here.
{"molecule": "Cn1cc(-c2csc(-c3cn(CCCN4CCCCC4)c4ccc(Br)cc34)n2)c2cccnc21", "groupLabel": "inactive"}
{"molecule": "CC[C@H](C)C(=O)O[C@H]1CCC=C2C=C[C@H](C)[C@H](CC[C@@H]3C[C@@H](O)CC(=O)O3)[C@H]21", "groupLabel": "inactive"}

Returns: the outcome recorded for `COC(=O)c1cc2c([nH]c3ccccc32)c(-c2nc3ccccc3cc2CO)n1` in this assay.
inactive

Hi team, can someone confirm the assay call for `CN(CCCCCCCCNc1ccnc2ccccc12)Cc1ccc(-c2ccc(-c3ccc(C#N)cc3)s2)cc1` ?
active

Kindly provide the recorded test outcome for the following molecule: `CN(C)C[C@@H]1CCn2cc(c3ccccc32)C2=C(C(=O)NC2=O)c2cn(c3ccccc23)CCO1`
inactive

Record lookup: outcome of this test for CC1OC(OC2C(O)C(OCCc3ccc(O)c(O)c3)OC(CO)C2OC(=O)/C=C/c2ccc(O)c(O)c2)C(O)C(O)C1O (centres undefined) ?
inactive

What was the test verdict on `COc1ccc2[nH]cc(Cc3c[nH]c4ccc(OC)cc34)c2c1` ?
inactive

// return assay outcome for O=C1NC(c2cccc3ccccc23)Nc2ccccc21 (centres undefined)
active

Assay result, entry `COc1ccc(C(=O)/C=C/c2c(C(F)(F)F)nc3ccccn23)cc1OC` — outcome?
inactive

* * *

Measured TGI, listed per entry for reference.
System: DU-145 prostate
assayComment: NCI tumour cell line growth inhibition, 48 h

For orientation, consider the following solved cases.
{"molecule": "Cc1cnc(-c2ccc(-c3ccc(NC(=O)Nc4cccc(C(F)(F)F)c4)cc3F)c3c2C(=O)NC3)[nH]1", "TGI": "35.6 µM"}
{"molecule": "O=c1oc2ccc(I)cc2c(=O)n1-c1ccc(I)cc1F", "TGI": "17.9 µM"}
{"molecule": "O=C1Nc2n[nH]c(=S)n2NC12c1ccccc1-c1ccccc12", "TGI": "> 100 µM"}

Report TGI for CC(C)(C)C1CCC2c3c([nH]c4ccccc34)C3C(=O)N(c4cc(Cl)ccc4Cl)C(=O)C3C2C1 (centres undefined)
> 100 µM

State its TGI: Cc1ccc2nc(-c3nccn3C)cc(C(=O)NC(C)CN(C)C)c2c1 (centres undefined)
> 100 µM

For the molecule `COc1ccc2[nH]cc(C3(c4c[nH]c5ccc(OC)cc45)C(=O)Nc4ccc(Cl)cc43)c2c1` , give its measured TGI value.
29.2 µM

For `CC[C@H](C)C(=O)O[C@H]1CCC=C2C=C[C@H](C)[C@H](CC[C@@H]3C[C@@H](O)CC(=O)O3)[C@H]21` , write its TGI.
> 100 µM

Identify the reported TGI for the following entry. O=C(O)CC(S)C(=O)O.[Li+].[Sb] (centres undefined)
> 100 µM

Provide one value: measured TGI of `CC(C)c1ccc(C(c2c(O)c3ccccc3oc2=O)c2c(O)c3ccccc3oc2=O)cc1`
> 81.8 µM

* * *

Test system: HL-60(TB) leukemia
assayComment: NCI tumour cell line growth inhibition, 48 h
Label T when TGI >= 100 µM; otherwise F.

Worked set:
{"compound": "CC[C@H](C)C(=O)O[C@H]1CCC=C2C=C[C@H](C)[C@H](CC[C@@H]3C[C@@H](O)CC(=O)O3)[C@H]21", "groupLabel": "F"}
{"compound": "COc1cc2cnc3c4cc(O)ccc4ccc3c2cc1OC", "groupLabel": "T"}
{"compound": "Nc1n[nH]c(N)n1", "groupLabel": "T"}
{"compound": "C#Cc1cccc(Nc2ncnc3ccc(-c4cnc(N)nc4)cc23)c1", "groupLabel": "F"}

In plain terms: is recorded TGI at least 100 µM for C=C(C)C1CC=C(C)C(O)([C@@]2(O)C[C@H](C(=C)C)CC=C2C)C1 (stereo partly specified) ?
F

* * *

In this section we review reported GI50 values for a set of compounds.
System: 786-0 renal
assayComment: NCI tumour cell line growth inhibition, 48 h

Write down the reported GI50 (system: 786-0 renal) of `COc1cc2c(cc1OC)-c1c(c3ccc([N+](=O)[O-])cc3c(=O)n1CCCN=[N+]=[N-])C2=O`
50.4 µM

Enter measured GI50, system 786-0 renal, for the compound shown: `C#Cc1cccc(Nc2ncnc3ccc(-c4cnc(N)nc4)cc23)c1`
2.67 µM

Quote 786-0 renal GI50 for entry `CN(CO)c1nc(N(C)CO)nc(N(C)CO)n1` .
29.6 µM

Under 786-0 renal: report GI50 of CC1OC(OC2C(O)C(OCCc3ccc(O)c(O)c3)OC(CO)C2OC(=O)/C=C/c2ccc(O)c(O)c2)C(O)C(O)C1O (stereo not given) .
14.5 µM

For 786-0 renal, give GI50 of the listed compound: `COc1ccccc1-c1ccc2c(N)c(C(=O)c3ccc4c(c3)OCO4)sc2n1`
2.78 µM

These data points were gathered from PubChem BioAssay (NCI).
